# experimental.system: Urease subunit alpha/Urease subunit beta (Helicobacter pylori (strain ATCC 700392 / 26695) (Campylobacterpylori))
# method.description: Inhibition of urease in Helicobacter pylori ATCC 43504 assessed as ammonia production incubated for 1.5 hrs prior to testing by indophenol method
Criterion met if IC50 is below 70 µM. Criterion not met if not; exact matches included in Criterion not met.

Quick check: does CC(=O)NO [ACETOHYDROXAMIC ACID] have IC50 under 70 µM? Criterion not met

Quick check: does `O=[N+]([O-])c1cccc(NCc2ccc(O)c(O)c2)c1` have IC50 under 70 µM? Criterion met

Quick check: does `CN(C)c1ccc(CNc2cccc([N+](=O)[O-])c2)cc1` have IC50 under 70 µM? Criterion not met

Quick check: does `O=[N+]([O-])c1ccc(NCc2ccc(O)cc2)cc1` have IC50 under 70 µM? Criterion met

Quick check: does `O=[N+]([O-])c1ccc(CNc2ccc([N+](=O)[O-])cc2)cc1` have IC50 under 70 µM? Criterion not met

Quick check: does `O=[N+]([O-])c1ccc(NCc2ccc(Cl)cc2)cc1` have IC50 under 70 µM? Criterion not met

Quick check: does `O=[N+]([O-])c1ccc(NCc2ccc(O)c(O)c2)cc1` have IC50 under 70 µM? Criterion met

---

I'd be grateful if you could share measured pIC50 for these entries.
# experimental.system: Urease subunit alpha/Urease subunit beta (Helicobacter pylori (strain ATCC 700392 / 26695) (Campylobacterpylori), UniProt P69996)
# Sequence (P69996 whole entry): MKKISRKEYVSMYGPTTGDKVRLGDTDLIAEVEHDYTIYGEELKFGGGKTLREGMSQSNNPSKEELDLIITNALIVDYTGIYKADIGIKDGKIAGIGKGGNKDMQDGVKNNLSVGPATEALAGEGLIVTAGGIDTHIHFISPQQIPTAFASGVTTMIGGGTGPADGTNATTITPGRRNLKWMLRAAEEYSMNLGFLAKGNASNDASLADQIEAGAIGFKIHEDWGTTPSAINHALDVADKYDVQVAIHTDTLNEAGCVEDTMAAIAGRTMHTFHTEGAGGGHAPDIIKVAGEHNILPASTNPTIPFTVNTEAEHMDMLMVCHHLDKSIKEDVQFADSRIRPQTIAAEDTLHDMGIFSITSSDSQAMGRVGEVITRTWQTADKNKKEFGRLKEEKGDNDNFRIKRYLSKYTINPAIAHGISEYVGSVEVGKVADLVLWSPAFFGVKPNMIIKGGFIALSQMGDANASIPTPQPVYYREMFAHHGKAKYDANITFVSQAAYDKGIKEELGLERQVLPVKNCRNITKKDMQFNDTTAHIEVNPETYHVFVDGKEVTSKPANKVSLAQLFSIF
# Sequence (P14916 whole entry, further chain): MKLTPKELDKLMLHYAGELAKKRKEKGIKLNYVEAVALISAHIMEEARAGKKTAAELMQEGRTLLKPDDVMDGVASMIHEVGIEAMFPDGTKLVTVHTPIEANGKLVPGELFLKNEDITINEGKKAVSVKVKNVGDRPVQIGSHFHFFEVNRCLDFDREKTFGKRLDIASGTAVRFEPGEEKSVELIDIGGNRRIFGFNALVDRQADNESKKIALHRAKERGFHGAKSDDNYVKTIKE
# method.description: Inhibition of urease isolated from Helicobacter pylori ATCC 43504 assessed as ammonia production incubated for 1.5 hrs prior to testing by indophenol method
When answering, recall that pIC50 equals minus log10 of the concentration in mol/L, and write that number alone.

Fill in the blank: the reported pIC50 of `O=[N+]([O-])c1ccc(NCc2ccc(O)c(O)c2)cc1` is ____. 6.21

Fill in the blank: the reported pIC50 of `COc1ccc(CNc2cccc([N+](=O)[O-])c2)cc1OC` is ____. 4.30

Fill in the blank: the reported pIC50 of `O=[N+]([O-])c1cccc(CNc2cccc(Cl)c2)c1` is ____. 3.39

Fill in the blank: the reported pIC50 of CC(=O)NO [ACETOHYDROXAMIC ACID] is ____. 4.74

Fill in the blank: the reported pIC50 of `O=[N+]([O-])c1cccc(NCc2ccc(O)c(O)c2)c1` is ____. 5.63

Fill in the blank: the reported pIC50 of `O=[N+]([O-])c1ccc(NCc2ccc(Cl)cc2)cc1` is ____. 4.71

Fill in the blank: the reported pIC50 of `O=[N+]([O-])c1ccc(CNc2cccc(Cl)c2)cc1` is ____. 3.63

Fill in the blank: the reported pIC50 of `O=[N+]([O-])c1ccc(CNc2ccc([N+](=O)[O-])cc2)cc1` is ____. 4.58

Fill in the blank: the reported pIC50 of `O=[N+]([O-])c1cccc(NCc2ccc(Cl)cc2)c1` is ____. 4.24

Fill in the blank: the reported pIC50 of `CN(C)c1ccc(CNc2cccc([N+](=O)[O-])c2)cc1` is ____. 4.77

Fill in the blank: the reported pIC50 of `O=[N+]([O-])c1ccccc1NCc1ccc(O)c(O)c1` is ____. 4.35

Fill in the blank: the reported pIC50 of `O=[N+]([O-])c1ccc(NCc2ccc(O)cc2)cc1` is ____. 5.08

Fill in the blank: the reported pIC50 of `COc1ccc(NCc2cccc([N+](=O)[O-])c2)cc1` is ____. 3.50

Fill in the blank: the reported pIC50 of `O=[N+]([O-])c1cccc(CNc2cccc([N+](=O)[O-])c2)c1` is ____. 4.07

Fill in the blank: the reported pIC50 of `O=[N+]([O-])c1ccc(CNc2cccc([N+](=O)[O-])c2)cc1` is ____. 4.19

Fill in the blank: the reported pIC50 of `O=[N+]([O-])c1ccccc1CNc1ccc(Cl)cc1` is ____. 3.62
